target: T1, human CD3e/d (human, UniProt P07766 23-126; P04234 22-105); experiment: SPR (Carterra LSA), mAb on chip
T1 construct: Bought soluble protein; also called hCD3e/d; human CD3/ed (Sino CT038-H2508H)
T1 sequence (P07766 23-126, chain 1 of 2): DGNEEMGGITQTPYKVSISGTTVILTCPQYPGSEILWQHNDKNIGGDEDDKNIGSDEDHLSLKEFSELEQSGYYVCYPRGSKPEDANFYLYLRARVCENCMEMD
T1 sequence (P04234 22-105, chain 2 of 2): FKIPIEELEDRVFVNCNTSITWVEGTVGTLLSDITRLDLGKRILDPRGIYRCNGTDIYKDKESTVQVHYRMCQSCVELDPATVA
EXPERIMENTAL READOUT: Kd (nM)
State the answer as a number, implicitly in nM.

[[record]]
binder = "mAb 121 (antibody, V domains shown, VH and VL only) VH: EVQLVESGGGLVQPGRSLRLSCATSGFTFADYTMHWVRQAPGKGLEWVSGISWNSGSIDYADSVKGRFTISRDNAKKSLYLQMNSLRAEDTALYFCAKDSSGYGHYYFYYLDVWGKGTTVTVSS VL: EIVMTQSPGTLSVSPGKRATLSCRASQSVSSNLAWYQQKPGQGPRLLIYSTSTRATGIPARFSGSGSGTEFTLTISSLQSEDSAVYYCQHYNNWPHFGQGTRLEIK"
number = 21

[[record]]
binder = "mAb 219 (antibody, V domains shown, VH and VL only) VH: QEQLVESGGGVVQPGGSLRLSCAASGFMFSGYGMHWVRQAPGKGLEWVAIIWYNGRKTYYTESVKGRFTISRDNSKNTLSLQMNSLRVEDTAVYYCTAGQGYNWFDPWGQGTLVTVSS VL: EIVMTQSPATLSVSPGERATLSCRASQSVSSNLAWYQQKPGQAPRLLIYGASTRATGIPARFSGSGSGTEFTLTISSLQSEDFAVYYCQQFNAWPLTFGGGTKMEIK"
number = 10


Query binder follows.
Lookup: Give its Kd value. Item: mAb 290 (antibody, V domains shown, VH and VL only) VH: EVQLVESGGGVVRPGGSLRLSCAASGFTFDDYGMSWVRQAPGKGLEWVSGISWNGGSTGYADSVKGRFTISRDNAKNSLYLQMNSLRAEDTALYHCARDGVPVVKRRYYYYYMDVWGKGTTVTVSS VL: EIVLTQSPDFQSVTPKEKITITCRASQSIGSSLHWYQQKPDQSPKLLIKYASQSFSGVPSRFSGSGSGTDFTLTINSLEAEDAATYYCHQSASLPQTFGQGTKVEIK
Found: 3200
